Would you kindly list WC ELISA for each of these sequences?
molecular target: 3T3 cells that over-express human cMet (Homo sapiens, UniProt P08581); construct: expressed in transfected cells; host or cells: 3T3 cells; test: Whole cell ELISA of peptide-displaying phage; assay type: cell-based; conditions: phage isolate; 3T3 cells expressing human cMet vs. non-expressing 3T3 cells
Sequence (P08581 25-1390): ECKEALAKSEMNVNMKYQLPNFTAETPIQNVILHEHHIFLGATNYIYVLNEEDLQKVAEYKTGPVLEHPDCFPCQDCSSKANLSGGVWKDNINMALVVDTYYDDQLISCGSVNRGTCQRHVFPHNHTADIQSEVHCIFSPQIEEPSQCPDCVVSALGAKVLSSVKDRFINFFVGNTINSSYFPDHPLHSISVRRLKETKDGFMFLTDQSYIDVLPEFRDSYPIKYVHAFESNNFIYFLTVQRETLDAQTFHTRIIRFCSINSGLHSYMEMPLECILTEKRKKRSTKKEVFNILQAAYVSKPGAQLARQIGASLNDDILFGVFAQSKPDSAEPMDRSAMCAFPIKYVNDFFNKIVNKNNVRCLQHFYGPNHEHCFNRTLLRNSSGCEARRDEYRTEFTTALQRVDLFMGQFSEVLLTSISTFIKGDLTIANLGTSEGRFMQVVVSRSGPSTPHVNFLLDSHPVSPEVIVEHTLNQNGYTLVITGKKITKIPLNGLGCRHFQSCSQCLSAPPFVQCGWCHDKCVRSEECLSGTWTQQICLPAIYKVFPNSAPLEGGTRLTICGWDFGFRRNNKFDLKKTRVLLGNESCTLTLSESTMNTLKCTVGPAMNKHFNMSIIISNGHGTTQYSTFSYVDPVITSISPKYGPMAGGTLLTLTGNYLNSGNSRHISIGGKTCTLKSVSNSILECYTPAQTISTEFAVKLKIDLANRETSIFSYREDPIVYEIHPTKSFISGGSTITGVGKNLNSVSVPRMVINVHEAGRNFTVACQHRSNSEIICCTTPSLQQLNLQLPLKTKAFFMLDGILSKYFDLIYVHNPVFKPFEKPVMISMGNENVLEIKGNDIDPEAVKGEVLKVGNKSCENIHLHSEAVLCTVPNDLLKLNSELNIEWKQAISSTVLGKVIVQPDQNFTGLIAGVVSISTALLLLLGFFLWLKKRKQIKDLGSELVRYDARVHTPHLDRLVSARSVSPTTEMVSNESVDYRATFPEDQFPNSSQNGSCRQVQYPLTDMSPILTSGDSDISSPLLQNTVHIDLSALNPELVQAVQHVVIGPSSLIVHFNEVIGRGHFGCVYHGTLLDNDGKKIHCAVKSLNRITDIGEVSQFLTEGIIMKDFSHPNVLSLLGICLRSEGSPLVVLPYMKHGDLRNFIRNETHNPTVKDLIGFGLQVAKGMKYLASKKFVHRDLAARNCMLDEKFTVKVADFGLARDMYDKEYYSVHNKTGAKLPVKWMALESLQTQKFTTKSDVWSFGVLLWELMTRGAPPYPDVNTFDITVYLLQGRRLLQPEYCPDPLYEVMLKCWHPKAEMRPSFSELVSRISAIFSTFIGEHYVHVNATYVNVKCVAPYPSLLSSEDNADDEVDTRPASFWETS
Numbers only, in fold over background.

residue_codes="AGQYLCTQAALGCPEWGT (Synthetically generated cMet-binding peptide sequence) [SEQ ID NO: 029]" target="3T3 cells that over-express human cMet (Homo sapiens, UniProt P08581)" measured_endpoint="WC ELISA" recorded_result=1.23

// each sequence listed below needs its WC ELISA
1. GSQNNCEYGSRGSSFCLAMAP (Synthetically generated cMet-binding peptide sequence) [SEQ ID NO: 377]
2. GDPDECQLNRETFEVWCPWHDP (Synthetically generated cMet-binding peptide sequence) [SEQ ID NO: 401]
3. AGYPECKDNYHWCEWKGT (Synthetically generated cMet-binding peptide sequence) [SEQ ID NO: 024]
4. AGNYFCAGSPSFSCYFMGT (Synthetically generated cMet-binding peptide sequence) [SEQ ID NO: 054]

1. 1.23
2. 1.23
3. 1.30
4. 1.33

Field request: WC ELISA | item: AQDNTADQMFNGFHVLAMYMV (Synthetically generated cMet-binding peptide sequence) [SEQ ID NO: 481]
1.37
